# Protocol Text: yeast display, Sf9 membrane polyspecificity reagent, FACS + sequencing; frameworks hold sequencing errors
Measured Attribute: polyreactivity (PSR sort gate)

Answered cases to consult:
1) QVQLVESGGVLVQAGGSLRLSCAASGSIFDTYAMGWYRQAPGKERELVAAITWSGSSTYYADSVKGRFTISRDNAKNTVYLQMNSLKQEDTAVYYCAKDYYVEVTTEYDYWGQGTQVTVSS :: high polyreactivity
2) QVQLVESGGGLVQAGGSLRLSCAASGRTFCYYTMVWYRQAPGKEREMVASISRVTSTYYADSVKGRFTISRDNAKNTVDLQMNSVKPEDTAVYYCAADRTRYYVGYRWTGNKMVYWGQGTQVTLSS :: low polyreactivity
3) QVQLVESGGGLVQAGGSLRLSCAASGRIFDTNVMGWYRQAPGTEREFVAAIRWNGGSTNYADSVKGRFTISRDNAKNTVYLQMNSLKPEDTAVYYCAADGSIGWRHIYEYWGQATQVTVSS :: low polyreactivity
4) QVQLVESGGGIVQAGGSLRISSSASGRIITAYAMGWYRQAPGKERELVAAITRSTTYYADSVKGRFTISRDNAKFSVDLQLHSLKPDDTAVFYCAADYRGTWYGYDYWGQGTHVTVSS :: high polyreactivity

Entry under review: QVQLVESGGGLVKAGGSLRLSCAASGFTYSTYAMGWYRQAPGKEREFVAAISRSGGSTYYADSVKGRFTISRDNAKNTVYLQMNSLKPEDTAVYYCAVRPYRSAGGSVTRGAYYYWGQGTQVTVSS . Reported polyreactivity (PSR sort gate)?
high polyreactivity

====

# Protocol Text: yeast display, Sf9 membrane polyspecificity reagent, FACS + sequencing; frameworks hold sequencing errors
Measured Attribute: polyreactivity (PSR sort gate)

Completed entries (count: 4):
1) QFQLVESGGGLVQAGGSLRLSCAASGSTFGVYALGWYRQAPGKARELVATINSGGSTNYADSVKRRFTSSRDNAKNTVYLQMTSLTPEDTAVYYCAAGPFWQDFYVYEYDYWGQGTQVTVSS :: low polyreactivity
2) QVQLVESGGGLVQAGGSLRLSSAASGRTFNIYAKGWYRHAPGKERELVAAITWRSGSTYDADSVKGRFTISRDNAKNTVYLQMNSLKPEDTAVYYCAAEQWSSVPEFDYWGQGTQVTVSS :: high polyreactivity
3) QVQLVESGGGLVQAGGSLRLSCAASGFIFFFYAMGWYSQAPGKERELVASISWNGGSTYYADSVKGRFTISRDNAKNTVYLQMNSLKPEDTAVYYCNKDPVSLWYYSKDYTYDYWGQGTQVTVSS :: low polyreactivity
4) QVQLVESGGGLVQAGGSLRLSCAASGRTFRPNAMGWYRQAPGKERELVASITRRGGTTYYADSVKGRFTISRDNAKNTVYLQMYSLKPEDSAVYYCNAPPGYSSTRNGYWGQGTQVTVSS :: high polyreactivity

Please find the next sequence below.
What does the data say about its polyreactivity (PSR sort gate)? Entry: QVQHVESGGGILQAGRSLRLICAASGRLYLSNVMAWNRQAPGTERQLVAAITGRGSSTYYADSVKGRFTISRDNAKNTVYLLINSLKPEDSAVYSCAKRLPYSSGYEYWGQGTQVTVSS
high polyreactivity

====

# Protocol Text: yeast display, Sf9 membrane polyspecificity reagent, FACS + sequencing; frameworks hold sequencing errors
Measured Attribute: polyreactivity (PSR sort gate)

1) QLQLVESGGGLVPAGGSLRLSCAASGIIFTSNTMGWYRQAPGKEREFVASINWNGSSTYADSVKGRFTISRDNGKNTVYLEMNSLKPEDTAVYYCNADYISNSVQFSLYDYWGQGTQVTVSS :: low polyreactivity
2) KVQLVEKGGGLVQAGGSLRLSSAASGLNFTIYSMGWYRQEPGKERELVATISQGGGSTYADSVKGRFTISRDNAKNTVYLQMNSLKPEDTAVYYCNAKVVWYYLYDYWGQGTQVTVSS :: low polyreactivity
3) QVQLVESGGGLVQAGGSLRLSCAASGRTFGYYAMGWYRQAPGTERELVASISSRGGSSYYADSVKGRFTISRDNAKNTVYLQMNSLKPEDTAVYYCNAPSWSGSRTYYYWGQGTQVTVSS :: high polyreactivity
4) QVQLVESGGGLVQAGGSLRLSCAASGRTFVRYAMGWYRQAPGKERELVARITSSGGSTYYADSVKGRFTISRDNAKNTVYLQMNSLKPEDTAVYYCAKDTAFYRFQGHYGYWGQGTQVTVSS :: high polyreactivity
5) QVQLVESGRGLVQAGGSLRLSCAASGRIFRVNAMGWYRQAPGKERELVAAISWGGGSTYYADSVKGRFTISRDNAKNTVYLQMNSLKREDTAVYYCATTLVKSQSRYYYWGQGTQVTVSS :: high polyreactivity
6) QVQLVESVGGLVQAGGSLRLSCADSGFTIYSYAMGWYRQAPGKERELVAAITQSGGSTYYADSVKGRFTISRDNAKNTVYLQMNSLKPEDTAVYYCAAVIYIDYDYGYYYWGQGTQVTVSS :: low polyreactivity

So what does the record say about polyreactivity (PSR sort gate) for QVQLVESGRGLVQAGGSLRLSCAASGIIFYENAMGWYRQAPGKERELVADITQSGGSTYYADSVKGRFTISRDNAKNTVYLQMNSLKPEDTGVYYCAADGYDPYGGLYDYWGQGNQVTVSS ?
low polyreactivity

Let us now turn to QVQLVESGGGLVQAGGSLRLSCAASGLTFWGYAMGWYRQAPGKEREFVASISSGGGSTYYADSVKGRFTISRDNAKNTVYLQMNSLKPEDTAVYYCNVDVHLYLYKSYTYRYYYWGQGTQVTVSS
low polyreactivity

Could you do the same for QVQLVESGGGLVQAGGSLRLSCAASGSTFKAYAMGWYRQAPGKERELVAAITKSGGRTYYADSVKGRFTLSRDNAKNTVYLQMNSLKPEDTAVYYCNAAAYVWKSKQRLYVITYDYWGQGTQVTVSS , please?
high polyreactivity

And the next one, QVQLVESGGGIVQAGGSLRLSCAASGIIFDVYAMGLYRQAPGTERELVAAISKRGGRTYYADSVKWRFTISRDNAKNTVYLQMNSLKPEDTAVYYCAADGQYKHFDYWGQGTQVTVSS ?
high polyreactivity

====

# Protocol Text: yeast display, Sf9 membrane polyspecificity reagent, FACS + sequencing; frameworks hold sequencing errors
Measured Attribute: polyreactivity (PSR sort gate)

1) QLQLVESGRGLVQAGGSLRLSCDASGYIFGWYAMGSYRQAPGKERELVAAITRGVSTNYADSVKGRFTISRENAMNTVYLQMNSLKPEDTAVYYCNTEDWAVGSPEVEYEYDYWGQGTQVTVSS :: low polyreactivity
2) QVQLVESGGGLVQAGGSLRLSCAASGSIFSPYAMGWYRQAPGKERELVAAITDSGGSTYYADSVKGRFTISRDNAKYTVYLQMNSLKPEDTAVYYCAADLRYWSWAFDYWGQGTQVTVSS :: low polyreactivity
3) QVQLVESGGGLVQAGGSLRLSCAASGSILRQYAMGWYRQAPGKERELVATITGDGSTNYADSVKGRFTISRDNAKNTVYLQMNSLKPEDTAVYYCAADQTYTYEYWGQGTQVTVSS :: low polyreactivity
4) QVQLVESGGGLVQAGVSLRLSCSASGGTFPQYAMAWYRHAPGKEREFVADITSRGGTTYYADSVKGRFTISRDNAKNTVFLQMNRLKPEDTAVYFCAADNPADWWGLDYWGQGTQVTVSS :: low polyreactivity
5) QVQLVESGGGLVQAGGSLRLSCAASGSIFVSYAMGWYRQAPGKERELVAAITVSGGSTYYADSVKGRFTISRDNAKNTVYLQMNSMKPEDTAVYYCAADSWDDWVVEFYYWGQGTQVTVSS :: low polyreactivity

Param item = QVQLVESGGGLVQAGGSLRLSCAASGRIFTANAMGWYRQAPGKERELVAAISWRGGSTYYADSVKGRFTISRDNAKNSVYLQLNSLKPEDTAVYYCAAQRYAPYRYEYWGQGTHVTVSS ; retrieve measured polyreactivity (PSR sort gate).
high polyreactivity

Param item: QVQLVESGGGLVQAGGSLRLSCAASGRTFGANAMGWYRQAPGKERELVAAINSGDITNYADSVKGRFTISRDNAKNTVYLQMNSLKPEDTAVYYCAAGSYYTYSGYNYWGQGTQVTVSS
low polyreactivity

Same read-out for QVQLVESGGGLVQAGGSLRLSCAASGIIFENYAMGWYRQAPGKERELVAAITIGGSTYYADSVKGRFTISRDNAKNTVYLQMNSLKPEDTAVYYCAARSGAQRGGGYWGQGTQVTVSS ?
high polyreactivity

Okay, and QVQLVESGGGLVQAGGSLRLSCAASGLTFYKNAMGWYRQPPGKERELGAVISSSGGSTYYADSVKGRFTISRDNAKNTVYLQMKSLKPEDTAVYYSARDLYTEYRWGRLTYDYWGQGTQVTVSS ?
low polyreactivity

One more sequence: QVQLVESGGGLVQAGGSLRLSCAASGRTFGPYAMGWYRQAPGKERELVAAISSSGSTTYYADSVKGRFTISRDNAKNTVYLQMNSLKPEDTAVYYCAKPSSRDSPYDYWGQGTQVTVSS
low polyreactivity

Do the same for QVQLVESGGGLVQAGGSLRLSCAASGRIFGWYAMGWYRQAPGKERELVAAISWSGGSTYADSVKGRFTISRDNAKNTVYLQMNSLKPEDTAVYYCAADVAYVEYDYWGQGTQVTVSS please
low polyreactivity
